FYI, the data here is from ChEMBL document CHEMBL5331044.

Molecular target: Epidermal growth factor receptor (Homo sapiens, UniProt P00533)
Sequence (P00533 whole entry): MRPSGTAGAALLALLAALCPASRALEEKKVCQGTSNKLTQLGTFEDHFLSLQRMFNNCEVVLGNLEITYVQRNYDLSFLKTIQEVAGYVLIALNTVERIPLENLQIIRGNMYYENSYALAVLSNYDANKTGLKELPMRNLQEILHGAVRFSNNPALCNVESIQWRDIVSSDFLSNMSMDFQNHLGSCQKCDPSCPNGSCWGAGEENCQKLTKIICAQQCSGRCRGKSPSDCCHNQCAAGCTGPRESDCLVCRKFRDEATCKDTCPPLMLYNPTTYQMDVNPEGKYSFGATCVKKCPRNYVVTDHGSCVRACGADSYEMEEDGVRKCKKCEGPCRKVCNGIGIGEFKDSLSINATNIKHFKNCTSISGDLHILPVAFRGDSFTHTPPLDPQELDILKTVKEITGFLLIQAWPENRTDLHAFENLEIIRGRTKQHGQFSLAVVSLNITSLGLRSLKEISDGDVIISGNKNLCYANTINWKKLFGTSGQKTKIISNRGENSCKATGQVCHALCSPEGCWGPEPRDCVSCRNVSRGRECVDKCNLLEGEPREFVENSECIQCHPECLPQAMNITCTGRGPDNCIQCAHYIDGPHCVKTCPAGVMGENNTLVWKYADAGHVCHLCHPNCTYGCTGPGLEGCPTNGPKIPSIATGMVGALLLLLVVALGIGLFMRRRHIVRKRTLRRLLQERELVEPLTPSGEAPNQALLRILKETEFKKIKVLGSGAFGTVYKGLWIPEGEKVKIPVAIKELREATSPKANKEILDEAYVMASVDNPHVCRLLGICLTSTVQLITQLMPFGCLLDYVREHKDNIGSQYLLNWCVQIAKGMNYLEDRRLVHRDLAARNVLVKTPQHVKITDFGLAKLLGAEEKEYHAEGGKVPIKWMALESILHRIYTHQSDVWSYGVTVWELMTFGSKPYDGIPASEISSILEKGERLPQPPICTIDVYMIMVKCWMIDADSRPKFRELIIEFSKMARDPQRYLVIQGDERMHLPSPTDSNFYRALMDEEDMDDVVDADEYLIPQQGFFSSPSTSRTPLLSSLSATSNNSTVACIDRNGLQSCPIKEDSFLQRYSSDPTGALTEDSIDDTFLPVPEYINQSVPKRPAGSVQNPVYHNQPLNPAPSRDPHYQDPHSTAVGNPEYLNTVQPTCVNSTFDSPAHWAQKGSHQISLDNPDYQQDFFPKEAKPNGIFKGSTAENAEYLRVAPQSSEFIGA
Test: Inhibition of wild type EGFR in human A-431 cells
Type: cell-based
pIC50: −log10 of the molar value.
PROPERTY_MEASURED: pIC50

Consider the compound `Cc1ncsc1-c1ccc(CNC(=O)[C@@H]2C[C@@H](O)CN2C(=O)[C@@H](NC(=O)CCCCCCCCCCn2cc(COc3cc4ncnc(Nc5ccc(F)c(Cl)c5)c4cc3NC(=O)/C=C/CN3CCCCC3)nn2)C(C)(C)C)cc1` and give its measured pIC50.
< 4.70

---

Molecular target: Epidermal growth factor receptor (Homo sapiens, UniProt P00533, EX19DEL)
Sequence (P00533 whole entry, looked up, stated change not applied): as the sequence (P00533 whole entry) above
Assay: Inhibition of EGFR del19 mutant in human HCC827 cells
PROPERTY_MEASURED: IC50 (nM)
Report the figure in nM without appending any unit label.

Give the measured IC50 of `Cc1ncsc1-c1ccc(CNC(=O)[C@@H]2C[C@@H](O)CN2C(=O)[C@@H](NC(=O)CCCCCCCCCCn2cc(COc3cc4ncnc(Nc5ccc(F)c(Cl)c5)c4cc3NC(=O)/C=C/CN3CCCCC3)nn2)C(C)(C)C)cc1` .
6

---

Molecular target: Epidermal growth factor receptor (Homo sapiens, UniProt P00533)
Assay: Inhibition of wild type EGFR in human A549 cells
Format: cell-based
PROPERTY_MEASURED: IC50

Requested field: IC50. Item: `Cc1ncsc1-c1ccc(CNC(=O)[C@@H]2C[C@@H](O)CN2C(=O)[C@@H](NC(=O)CCCCCCCCCCn2cc(COc3cc4ncnc(Nc5ccc(F)c(Cl)c5)c4cc3NC(=O)/C=C/CN3CCCCC3)nn2)C(C)(C)C)cc1`
> 20 µM

---

Tested on: BaF3
Assay: Antiproliferative activity against mouse BaF3 cells transfected with EGFR […]/T790M mutant assessed as inhibition of cell growth
Format: functional, cell-based
PROPERTY_MEASURED: IC50 (nM)
Your answer should be a plain number; it is taken to be in nM.

So what does the record say about IC50 for O=C1CCC(N2C(=O)c3cccc(NCCOCCOCCOCCN4CCN(c5ccc(-c6ccc7c(c6)C(=O)N(C(C(=O)Nc6nccs6)c6ccccc6)C7)cn5)CC4)c3C2=O)C(=O)N1 (stereo unspecified) ?
96

---

Target: Epidermal growth factor receptor (Homo sapiens, UniProt P00533)
Experiment: Inhibition of EGFR in human NCI-H1975 cells
Type: cell-based
pIC50: −log10 of the molar value.
PROPERTY_MEASURED: pIC50

For `Cc1ncsc1-c1ccc(CNC(=O)[C@@H]2C[C@@H](O)CN2C(=O)[C@@H](NC(=O)CCCCCCCCCCn2cc(COc3cc4ncnc(Nc5ccc(F)c(Cl)c5)c4cc3NC(=O)/C=C/CN3CCCCC3)nn2)C(C)(C)C)cc1` , what is its reported pIC50?
< 4.70
